# procedure.text: gradient 5% acetonitrile 3 min, to 50% in 2 min, to 85% in 15 min, held 3 min, 100 µL/min
# conditions: column: Zorbax Extend-C18 2.1 x 50 mm; eluents: water / acetonitrile, 0.1% formic acid
// returns class 0 unless RP-LC retention time is strictly below 800 s, in which case class 1

Illustrative cases are given below, each with its answer.
molecule | discrete.label
Cn1cc(CCN2CCC(C(=O)N3CCCCCC3)CC2)c2cccnc21 | class 1
O=C(C1CCCN(c2ncnc3c2nc2n3CCCCC2)C1)N1CCOCC1 (stereo not given) | class 0
Cc1nc2c(c(N(C)CC(=O)N3CCCC3)n1)CCC2 | class 1

Next, consider the following molecule.
Determine whether this molecule shows RP-LC retention time lower than 800 s (ties excluded): `CCN(CC)c1nc(C(=O)NCCN2CCN(C)CC2)nc2nc(C)cc(C)c12`
class 1
